Data provenance is patent US20130053541A1.

Target: T1, native human ESRRG protein (Estrogen-receptor related receptor gamma) (human, UniProt P62508 229-458, limits assumed)
T1 construct: the screened protein is called 'native human ESRRG protein'; also called ESSRG; ERRγ
T1 sequence (looked up): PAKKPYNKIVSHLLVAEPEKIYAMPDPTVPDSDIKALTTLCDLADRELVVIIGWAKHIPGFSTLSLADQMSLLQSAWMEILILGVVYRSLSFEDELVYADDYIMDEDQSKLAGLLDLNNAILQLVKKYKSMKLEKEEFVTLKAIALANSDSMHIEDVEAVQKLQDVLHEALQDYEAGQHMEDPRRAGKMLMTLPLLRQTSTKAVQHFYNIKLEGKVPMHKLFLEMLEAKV
Experiment: peptide microarray, Iteration 2; bound ESRRG detected with fluorescent anti-ESRRG mAb
Where no end group is shown, it is not given here.
Reported Sample B (Probe) Signal values for a set of binders

# lookup: Sample B (Probe) Signal of `Ac-WIKLKQND` 2340 fluorescence intensity units

Field entry: `Ac-LYLLKHHP` 2530 fluorescence intensity units

---
State the recorded Sample B (Probe) Signal for this entry: `Ac-NNSYPRHR` 3420 fluorescence intensity units

What do we get for `Ac-HDNMYLNE` ? 7240 fluorescence intensity units

Also, `Ac-WLLLKHGL` please. 895 fluorescence intensity units

Same question, `Ac-LILLQQLD` this time 1250 fluorescence intensity units

Repeat with `Ac-NNNFSLHM` 4370 fluorescence intensity units

Field entry: `Ac-FVNFSLGI` 900 fluorescence intensity units
